target: HLA-A*26:01; test: IEDB peptide-MHC binding, purified MHC/competitive/fluorescence; filed as Kd, often an IC50 or EC50 that approximates it; bounds were set here for any values at or beyond the usual limits of such assays; conditions: source organism: Orthohantavirus seoulense
property name: Kd

For reference, reported Kd for KPKHLYVSM stands at ≥ 20 µM

* * *

biological target: HLA-B*44:02; assay: IEDB peptide-MHC binding, purified MHC/direct/fluorescence; filed as Kd, often an IC50 or EC50 that approximates it; bounds were set here for any values at or beyond the usual limits of such assays; settings: source organism: Mycobacterium tuberculosis
pKd: −log10 of the molar value.
property name: pKd

Here EKAAWGVAL was tested on HLA-B*44:02, and its pKd came to ≤ 4.70
